molecular target: human DLL4 protein (Acro, Cat. No. DL4-H5227) (human) (UniProt Q9NR61); assay: ELISA, coated hDLL4; maximum over 0.1, 1, 10, 100 nM antibody
Sequence (Q9NR61 27-524 limits assumed): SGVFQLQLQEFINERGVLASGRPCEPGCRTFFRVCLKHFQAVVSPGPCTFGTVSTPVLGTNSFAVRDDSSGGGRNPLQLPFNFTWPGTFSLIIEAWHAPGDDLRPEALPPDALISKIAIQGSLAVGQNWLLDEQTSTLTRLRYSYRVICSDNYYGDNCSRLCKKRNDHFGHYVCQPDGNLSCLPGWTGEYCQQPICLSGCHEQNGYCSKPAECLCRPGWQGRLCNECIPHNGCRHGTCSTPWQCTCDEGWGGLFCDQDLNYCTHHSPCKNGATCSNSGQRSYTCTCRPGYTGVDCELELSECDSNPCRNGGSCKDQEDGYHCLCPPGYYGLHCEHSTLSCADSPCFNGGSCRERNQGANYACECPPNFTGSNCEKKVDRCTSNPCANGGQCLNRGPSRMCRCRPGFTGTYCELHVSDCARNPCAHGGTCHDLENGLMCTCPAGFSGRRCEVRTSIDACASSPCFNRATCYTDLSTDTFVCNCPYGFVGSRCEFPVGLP
outcome.measure: Emax of OD450 nm binding value (OD450 nm)

binder: Hab015VL4VH6a-hFc (scFv, part only; not given: scFv linker and human IgG1 Fc, V domains shown, not shown: another chain or arm of the molecule; a dimerising Fc or GST; small tags and cut ends) VL: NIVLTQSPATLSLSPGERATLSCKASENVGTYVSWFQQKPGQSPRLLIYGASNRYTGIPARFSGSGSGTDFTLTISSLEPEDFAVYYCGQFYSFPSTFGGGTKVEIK VH: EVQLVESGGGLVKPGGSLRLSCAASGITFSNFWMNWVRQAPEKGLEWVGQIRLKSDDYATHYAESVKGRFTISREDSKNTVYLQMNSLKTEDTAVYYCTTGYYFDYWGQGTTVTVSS
outcome.measure: Emax of OD450 nm binding value
units.of.measure: OD450 nm
recorded.result: 0.64
//
binder: Hab008L3H2a-hFc (scFv, part only; not given: VL-VH linker and human IgG1 Fc, V domains shown, not shown: another chain or arm of the molecule; a dimerising Fc or GST; small tags and cut ends) VL: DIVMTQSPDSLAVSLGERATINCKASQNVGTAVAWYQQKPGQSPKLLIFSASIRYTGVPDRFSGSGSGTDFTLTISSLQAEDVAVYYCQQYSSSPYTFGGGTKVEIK VH: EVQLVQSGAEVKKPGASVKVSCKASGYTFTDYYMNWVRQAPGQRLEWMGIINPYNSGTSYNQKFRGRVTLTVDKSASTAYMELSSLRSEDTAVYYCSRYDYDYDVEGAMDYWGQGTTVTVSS
outcome.measure: Emax of OD450 nm binding value
units.of.measure: OD450 nm
recorded.result: 0.04
//
binder: Hab015VL5VH5a-hFc (scFv, part only; not given: scFv linker and human IgG1 Fc, V domains shown, not shown: another chain or arm of the molecule; a dimerising Fc or GST; small tags and cut ends) VL: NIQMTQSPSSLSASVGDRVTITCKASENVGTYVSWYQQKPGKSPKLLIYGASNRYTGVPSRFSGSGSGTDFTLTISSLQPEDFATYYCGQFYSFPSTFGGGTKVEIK VH: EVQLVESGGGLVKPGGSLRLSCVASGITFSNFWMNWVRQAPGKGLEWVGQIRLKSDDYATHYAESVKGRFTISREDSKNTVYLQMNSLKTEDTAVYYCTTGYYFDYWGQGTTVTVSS
outcome.measure: Emax of OD450 nm binding value
units.of.measure: OD450 nm
recorded.result: 0.64
//
binder: Hab015VL5VH1a-hFc (scFv, part only; not given: scFv linker and human IgG1 Fc, V domains shown, not shown: another chain or arm of the molecule; a dimerising Fc or GST; small tags and cut ends) VL: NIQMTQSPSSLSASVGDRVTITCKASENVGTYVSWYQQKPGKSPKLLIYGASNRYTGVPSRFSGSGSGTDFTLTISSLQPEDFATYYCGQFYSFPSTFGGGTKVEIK VH: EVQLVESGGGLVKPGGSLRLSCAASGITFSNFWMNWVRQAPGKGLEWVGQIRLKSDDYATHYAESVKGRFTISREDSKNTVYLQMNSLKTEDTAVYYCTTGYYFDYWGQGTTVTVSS
outcome.measure: Emax of OD450 nm binding value
units.of.measure: OD450 nm
recorded.result: 0.71
//
binder: Hab009VL2aVH1-hFc (scFv, part only; not given: VL-VH linker and human IgG1 Fc, V domains shown, not shown: another chain or arm of the molecule; a dimerising Fc or GST; small tags and cut ends) VL: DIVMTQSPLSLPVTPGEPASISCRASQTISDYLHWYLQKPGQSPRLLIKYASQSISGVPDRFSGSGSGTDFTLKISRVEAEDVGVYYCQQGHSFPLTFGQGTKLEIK VH: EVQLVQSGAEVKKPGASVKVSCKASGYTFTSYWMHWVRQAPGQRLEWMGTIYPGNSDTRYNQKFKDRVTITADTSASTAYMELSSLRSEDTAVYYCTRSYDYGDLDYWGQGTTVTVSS
outcome.measure: Emax of OD450 nm binding value
units.of.measure: OD450 nm
recorded.result: 0.06
